meta.source: patent US20230159496A1

System: HTT mRNA
Assay info: Splicing assay (RT-qPCR) monitoring HTT canonical junction (CJ) and alternative junction (AJ) mRNA isoforms
Format: cell-based
Assay context: decrease in CJ mRNA (50% response); A673 or K562 cells, 24 h treatment, top dose 10 uM; read-out: HTT CJ AC50
# reported AC50; entries follow
Quantity: AC50

>>> experimental_value("Cc1cn2nc(-c3ccc4c(=O)n([C@H]5CCN[C@H](C)C5)ncc4c3)cc(C)c2n1")
"< 100 nM"
>>> experimental_value("Cc1cc(-c2ccc3c(=O)n(C4CCNCC4)cnc3c2)cc2cn(C)nc12")
"100 to 1000 nM"
>>> experimental_value("Cc1cn2cc(-c3ccc4c(=O)n(C5CCNCC5)ncc4c3)cc(C(F)(F)F)c2n1")
"1000 to 10000 nM"
>>> experimental_value("Cc1cn2cc(-n3cnc4cc(N5CCNCC5)ccc4c3=O)cc(F)c2n1")
"100 to 1000 nM"
